# target.or.test.system: Murine PKD1 kinase domain (Mus musculus, UniProt Q62101, R683W)
# Construct: hexahistidine (His6, pFastBac HTb leader) (N)
# Sequence (Q62101 with tags, fused parts or gaps R683W): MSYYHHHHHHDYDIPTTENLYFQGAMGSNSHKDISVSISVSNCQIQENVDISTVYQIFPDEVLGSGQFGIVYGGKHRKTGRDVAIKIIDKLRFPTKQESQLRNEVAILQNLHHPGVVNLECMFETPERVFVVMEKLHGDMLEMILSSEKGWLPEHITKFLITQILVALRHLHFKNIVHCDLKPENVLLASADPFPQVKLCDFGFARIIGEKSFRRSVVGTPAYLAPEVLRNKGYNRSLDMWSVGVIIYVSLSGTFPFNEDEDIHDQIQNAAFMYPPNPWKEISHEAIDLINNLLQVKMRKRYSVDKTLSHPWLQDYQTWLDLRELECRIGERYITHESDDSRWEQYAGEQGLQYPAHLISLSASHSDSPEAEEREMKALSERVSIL
# test.method.notes: PKD1 (Murine Kinase Domain) Enzyme Activity Assay (IMAP fluorescence polarisation)
# condition.label: 10 μM ATP, 10 point dose-response
measured.quantity: pIC50
Numbers only, as −log10 of the molar value.

stdin: Data request, read-out pIC50, for NCCNc1nc(-c2cc(Cl)ccc2O)nc2ccccc12 [XX-097]
stdout: 7.80
